Provenance of the data: paper PMC3344887

Record form. Attribute: half-life. Fill in for each entry.
# experimentDescription: clinical
# runConditions: human, in vivo, T1/2
Numbers only, in min.

INSERT INTO assay_data (compound, value) VALUES
  ('CNCC[C@H](Oc1cccc2ccccc12)c1cccs1 [Duloxetine]', 658);

Consider the record given below.
Item under review: CNC(C)Cc1ccc2c(c1)OCO2 (centres unmarked) [MDMA, 3,4-methylenedioxymethamphetamine] . Reported half-life?
428

---

# experimentDescription: clinical
# runConditions: human, in vivo, 125 mg
quantityName: Cmax (ng/mL)
One number for each entry, in ng/mL.

INSERT INTO results (molecule, quantityname, value) VALUES
  ('CNC(C)Cc1ccc2c(c1)OCO2 (centres unmarked) [MDMA, 3,4-methylenedioxymethamphetamine]', 'Cmax', 221);

For the molecule CC(N)Cc1ccc2c(c1)OCO2 (centres unmarked) [MDA, 3,4-methylenedioxyamphetamine] , what Cmax is on record?
11.8

---

Assign AUC(0-t) to each entry below.
# experimentDescription: clinical
# runConditions: human, in vivo, AUC0-6
Give bare numbers, in ng·h/mL.

Known AUC(0-t) results, listed for orientation:
INSERT INTO measurements (compound, unitofmeasure, value) VALUES
  ('CNC(C)Cc1ccc2c(c1)OCO2 (stereo not drawn) [MDMA, 3,4-methylenedioxymethamphetamine]', 'ng·h/mL', 1110),
  ('CNCC[C@H](Oc1cccc2ccccc12)c1cccs1 [Duloxetine]', 'ng·h/mL', 800);

// moving on: another record for AUC(0-t)
State the recorded AUC(0-t) for this entry: CC(N)Cc1ccc2c(c1)OCO2 (stereo not drawn) [MDA, 3,4-methylenedioxyamphetamine]
46.6

---

# experimentDescription: clinical
# runConditions: human, in vivo
quantityName: concentration at 120 min (nM)
Give bare numbers, in nM.

What value of concentration at 120 min has been reported for the following molecule? CNCC[C@H](Oc1cccc2ccccc12)c1cccs1 [Duloxetine]
314

---

# assayTarget: DAT (Homo sapiens)
# Sequence (Q01959 whole entry): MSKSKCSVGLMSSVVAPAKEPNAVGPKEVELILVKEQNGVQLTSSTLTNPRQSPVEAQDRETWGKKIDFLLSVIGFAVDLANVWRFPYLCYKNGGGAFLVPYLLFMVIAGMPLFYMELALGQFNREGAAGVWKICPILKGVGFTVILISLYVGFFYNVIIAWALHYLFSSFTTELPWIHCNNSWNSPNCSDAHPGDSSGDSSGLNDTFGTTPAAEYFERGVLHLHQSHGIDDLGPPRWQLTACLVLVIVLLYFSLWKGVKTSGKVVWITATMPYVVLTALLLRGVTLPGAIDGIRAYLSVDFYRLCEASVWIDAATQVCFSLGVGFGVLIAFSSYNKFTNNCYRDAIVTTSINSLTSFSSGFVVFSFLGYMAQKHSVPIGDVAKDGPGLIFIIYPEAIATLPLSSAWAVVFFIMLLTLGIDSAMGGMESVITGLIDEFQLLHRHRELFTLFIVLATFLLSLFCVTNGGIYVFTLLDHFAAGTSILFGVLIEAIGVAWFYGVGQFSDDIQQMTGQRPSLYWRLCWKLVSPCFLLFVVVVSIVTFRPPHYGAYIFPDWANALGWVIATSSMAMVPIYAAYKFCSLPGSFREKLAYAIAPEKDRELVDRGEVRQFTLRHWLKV
# experimentDescription: cell-based
Hi there, I'd appreciate the recorded Ki for every entry that follows.
Numbers only, in µM.

INSERT INTO measurements (compound, assaytarget, quantityname, value) VALUES
  ('CNC(C)Cc1ccc2c(c1)OCO2 (centres unmarked)', 'DAT (Homo sapiens)', 'Ki', 16.7);

Next:
Value lookup for Ki; key = CC(N)Cc1ccc2c(c1)OCO2 (centres unmarked)
11

---

# assayTarget: NET (Homo sapiens, UniProt P23975)
# Sequence (P23975 whole entry): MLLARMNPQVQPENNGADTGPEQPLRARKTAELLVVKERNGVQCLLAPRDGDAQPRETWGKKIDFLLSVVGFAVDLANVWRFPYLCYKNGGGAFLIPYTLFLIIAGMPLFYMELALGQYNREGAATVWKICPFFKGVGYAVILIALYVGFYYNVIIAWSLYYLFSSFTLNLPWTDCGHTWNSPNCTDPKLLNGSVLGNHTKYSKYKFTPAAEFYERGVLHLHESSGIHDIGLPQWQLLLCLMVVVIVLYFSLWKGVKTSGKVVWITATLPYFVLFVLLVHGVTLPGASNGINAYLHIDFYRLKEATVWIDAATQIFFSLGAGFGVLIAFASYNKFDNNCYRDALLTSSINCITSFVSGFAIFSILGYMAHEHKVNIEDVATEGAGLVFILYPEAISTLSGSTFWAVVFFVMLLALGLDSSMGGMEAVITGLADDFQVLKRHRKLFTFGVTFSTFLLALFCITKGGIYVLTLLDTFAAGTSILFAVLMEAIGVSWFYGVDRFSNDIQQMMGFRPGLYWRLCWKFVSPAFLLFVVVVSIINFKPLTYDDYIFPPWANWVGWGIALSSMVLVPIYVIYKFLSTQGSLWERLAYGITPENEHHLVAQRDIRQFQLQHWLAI
# experimentDescription: Radioligand binding, [3H]-nisoxetine, HEK 293 membranes
# Set-up: expressed in transfected cells; host or cells: HEK 293 cells (Invitrogen), stably transfected
Would you mind telling me the reported Ki of each entry?
Numbers only, in µM.

INSERT INTO measurements (compound, value) VALUES
  ('CNC(C)Cc1ccc2c(c1)OCO2 (centres unmarked)', 22.4);

# ---- query compound ----
Give its Ki value. Item: CC(N)Cc1ccc2c(c1)OCO2 (centres unmarked)
17.8

---

# experimentDescription: clinical
# runConditions: human, in vivo, Tmax, Placebo-MDMA session, mean±SEM, n=16
quantityName: Tmax
Returns: string containing the numeric result and its unit.

Sample CNC(C)Cc1ccc2c(c1)OCO2 (stereo not shown) — what was its Tmax?
2.34 h
